Test system: DMS-114
Assay: NCI tumour cell line growth inhibition, 48 h
Activity calls are given as the source filed them. No stated cut-off is given here; in the data, active = GI50 up to about 1.1 µM and inactive = higher.
Property Name: GI50

CN(c1ccc(C(=O)c2ccc(N(C)S(C)(=O)=O)cc2)cc1)S(C)(=O)=O :: 14.1 µM (inactive)
COC(=O)C1=Cc2cc(OC)c(OC)cc2[C@H](c2ccc(OC)c(OC)c2)C1C(=O)OC (some centres undefined) :: > 100 µM (inactive)
COC(=O)c1cc2c3c(ccc2[nH]1)N(C(=O)c1cc2c4c(ccc2[nH]1)N(C(=O)c1cc2c5c(ccc2[nH]1)N(C(N)=O)CC5)CC4)CC3 :: 3.7 µM (inactive)
CCCCCCCCCCCCNC(=S)OC :: 4.63 µM (inactive)
NCCCC(N/C=C1/N=C(c2ccccc2)OC1=O)C(=O)O (centres undefined) :: > 100 µM (inactive)

// for each compound below, give its GI50
1. Clc1ccc(OC2CCO2)cc1Cl (centres undefined)
2. COc1ccc([C@H]2CC(=O)NCCCCN2)cc1
3. COc1ccc2c(c1)[n+]([O-])c(C(C)=O)c(C)[n+]2[O-]
4. CC(C)CC(NC(=O)OC(C)(C)C)C(=O)Nc1ccc(Nc2nc(F)nc(-c3c4ccccc4cn3C)n2)cc1 (centres undefined)
5. C=COC(=O)N[C@H]1CCc2cc(OC)c(OC)c(OC)c2-c2ccc(SC)c(=O)cc21
6. O=C(NC1CCCCC1)NC12CC3CC(CC(F)(C3)C1)C2
7. Cc1ccc(/N=N/c2ccc(N(CCC#N)CCC#N)cc2C)c(Br)c1
8. COc1nc(C(Cl)(Cl)Cl)c(Cl)c(OC)c1Cl

Found:
1. 34.4 µM (inactive)
2. > 100 µM (inactive)
3. > 100 µM (inactive)
4. 21.8 µM (inactive)
5. < 0.01 µM (active)
6. > 100 µM (inactive)
7. 12.8 µM (inactive)
8. 25.4 µM (inactive)

Hello, I would appreciate it if you could give GI50 for each entry below.
1. CC1COS(=O)O1 (centres undefined)
2. O=C(O)C12C3CCC(C3)C1(C(=O)O)C1CCC2C1 (centres undefined)
3. Cc1c2cc[n+](C)cc2c(C)c2c1[nH]c1ccccc12
4. O=C(c1ccco1)N(C(=S)N1CCN(c2ccccc2)CC1)c1ccccc1

Found:
1. > 100 µM (inactive)
2. 33.9 µM (inactive)
3. 0.315 µM (active)
4. > 100 µM (inactive)

# map each compound to its GI50
1. COC(=O)C1CC(C(=O)OC)c2nc3cc(C)ccc3nc21 (centres undefined)
2. O=C(c1nc2ccc([N+](=O)[O-])cc2nc1O)C(O)c1ccc2c(c1)OCO2 (centres undefined)
3. O=C1C(Br)=C(Br)C(=O)c2ccc(=O)ccc21
4. O=C(/C=C/c1ccc(OCCSCCCCCCCCCCSCCOc2ccc(/C=C/C(=O)c3ccc(Cl)cc3)cc2)cc1)c1ccc(Cl)cc1
5. O=c1[nH]cnc2c(COCCCO)c[nH]c12
6. CC(=O)OCC1=CC2CCC3C(C)(CCC[C@]3(C)COC(C)=O)C23CC[C@H]1C3 (some centres undefined)

Found:
1: > 100 µM (inactive); 2: 29.5 µM (inactive); 3: 20.4 µM (inactive); 4: > 100 µM (inactive); 5: > 100 µM (inactive); 6: 12.9 µM (inactive)

Looking up "O=C(/C=C/c1ccc(Cl)c(Cl)c1)c1cccc2ccccc12" , I found its GI50 recorded as 2.3 µM (inactive)
